Target: hNOD2 (Homo sapiens, UniProt Q9HC29)
Construct: host or cells: HEK-Blue NOD2 cells (HEK293)
Sequence (Q9HC29 whole entry): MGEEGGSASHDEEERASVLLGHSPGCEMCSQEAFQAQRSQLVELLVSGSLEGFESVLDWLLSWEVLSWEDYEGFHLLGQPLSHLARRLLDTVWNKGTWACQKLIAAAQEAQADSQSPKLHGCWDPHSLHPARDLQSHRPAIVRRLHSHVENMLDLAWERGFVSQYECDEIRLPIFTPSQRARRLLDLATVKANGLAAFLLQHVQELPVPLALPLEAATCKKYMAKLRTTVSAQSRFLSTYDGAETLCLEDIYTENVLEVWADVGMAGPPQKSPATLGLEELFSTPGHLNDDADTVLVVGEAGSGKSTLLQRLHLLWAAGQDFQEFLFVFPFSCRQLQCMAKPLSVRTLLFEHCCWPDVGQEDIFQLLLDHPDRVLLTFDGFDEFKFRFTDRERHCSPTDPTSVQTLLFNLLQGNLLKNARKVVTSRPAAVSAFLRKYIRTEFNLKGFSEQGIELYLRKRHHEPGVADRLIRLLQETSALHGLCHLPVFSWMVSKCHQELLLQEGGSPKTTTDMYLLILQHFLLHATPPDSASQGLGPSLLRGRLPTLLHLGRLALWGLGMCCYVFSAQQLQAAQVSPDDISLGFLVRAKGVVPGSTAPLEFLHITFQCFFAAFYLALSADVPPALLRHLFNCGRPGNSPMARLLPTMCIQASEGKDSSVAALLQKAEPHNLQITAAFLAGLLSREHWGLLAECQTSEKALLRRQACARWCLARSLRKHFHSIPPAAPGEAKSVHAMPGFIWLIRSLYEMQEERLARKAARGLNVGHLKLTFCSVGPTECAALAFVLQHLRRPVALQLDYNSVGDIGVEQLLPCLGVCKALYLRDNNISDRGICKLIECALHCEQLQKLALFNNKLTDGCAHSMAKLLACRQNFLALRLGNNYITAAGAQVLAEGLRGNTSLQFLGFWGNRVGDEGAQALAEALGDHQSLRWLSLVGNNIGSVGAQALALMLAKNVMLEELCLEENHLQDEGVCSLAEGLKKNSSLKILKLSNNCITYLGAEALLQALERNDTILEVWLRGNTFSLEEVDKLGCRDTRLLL
Experiment: HEK-Blue NOD2 cell line reporter assay (NF-κB-inducible SEAP)
Format: cell-based
Conditions: supplementary SMILES csv; read-out: HEK-blue hNOD2 EC50
Quantity kind: pEC50
Expect pEC50 as a plain number equal to -log10 of the molar concentration.

query: If you can, please state the reported pEC50 value of CCCCCCC(CC)C(=O)Oc1ccc(/C=C/C(=O)NCC(=O)N[C@H](C(=O)N[C@H](CCC(=O)OCC)C(=O)OCC)C(C)C)cc1OC (stereo partly shown) [Compound 13] .
result: 8.01

====

Tested on: human blood monocyte subsets
Assay: Monocyte conversion assay in PBMCs (CD14/CD16 flow cytometry)
Assay type: cell-based
Details: 10 μM, 18 h, NT 19.5%
Quantity kind: levels of nonclassical monocytes (%)
Just the number please, in %, no unit attached.

query: Entry CC/C=C\C/C=C\C/C=C\C/C=C\C/C=C\CCCC(=O)Oc1ccc(/C=C/C(=O)NCC(=O)N[C@H](C(=O)N[C@H](CCC(=O)OCC)C(=O)OCC)C(C)C)cc1OC [Compound 23] : reported levels of nonclassical monocytes = ?
result: 31.0

query: levels of nonclassical monocytes lookup needed for CCCC(=O)Oc1ccc(/C=C/C(=O)NCC(=O)N[C@H](C(=O)N[C@H](CCC(=O)OCC)C(=O)OCC)C(C)C)cc1OC [Compound 3] , thanks.
result: 31.9

query: Sample CC(=O)N[C@H]1C(O)O[C@H](CO)[C@@H](O)[C@@H]1O[C@H](C)C(=O)N[C@@H](C)C(=O)N[C@H](CCC(=O)O)C(N)=O (mixture of isomers) [MDP, muramyl dipeptide, reference compound] — what was its levels of nonclassical monocytes?
result: 31.5

query: Which levels of nonclassical monocytes value is on record for CCOC(=O)CC[C@@H](NC(=O)[C@@H](NC(=O)CNC(=O)/C=C/c1ccc(OC(=O)CO[C@H]2CC[C@@]3(C)C(=CC[C@H]4[C@@H]5CC[C@H]([C@H](C)CCCC(C)C)[C@@]5(C)CC[C@@H]43)C2)c(OC)c1)C(C)C)C(=O)OCC [Compound 26] ?
result: 44.8

====

Biological target: hNOD2 (Homo sapiens)
Construct: host or cells: HEK-Blue NOD2 cells (HEK293)
Assay: HEK-Blue NOD2 cell line reporter assay (NF-κB-inducible SEAP)
Type: cell-based
Details: HEK-Blue NOD2 cells, 18 h, NF-κB transcriptional activity (SEAP); read-out: EC50 (nM), NOD2 agonistic activity
Quantity kind: EC50 (nM)
# value in nM; strip the unit string

query: I have this molecule here, "CCOC(=O)CC[C@@H](NC(=O)[C@@H](NC(=O)CNC(=O)/C=C/c1ccc(OC(=O)CCCCCCCCCCCCCO)c(OC)c1)C(C)C)C(=O)OCC" , and I need its recorded EC50.
result: 12.3

query: Which EC50 is reported for this molecule? "CCCCC(CCCC)C(=O)Oc1ccc(/C=C/C(=O)NCC(=O)N[C@H](C(=O)N[C@H](CCC(=O)OCC)C(=O)OCC)C(C)C)cc1OC"
result: 22.4

query: Tell me the measured EC50 of "CCCCCC(CCCCC)C(=O)Oc1ccc(/C=C/C(=O)NCC(=O)N[C@H](C(=O)N[C@H](CCC(=O)OCC)C(=O)OCC)C(C)C)cc1OC" , please.
result: 88.6

query: Consider the molecule shown here: "CCCCCCCCC(=O)Oc1ccc(/C=C/C(=O)NCC(=O)N[C@H](C(=O)N[C@H](CCC(=O)OCC)C(=O)OCC)C(C)C)cc1OC" What is its recorded EC50?
result: 24.8

query: Consider the molecule "CCCCCCCCCCCC(=O)Oc1ccc(/C=C/C(=O)NCC(=O)N[C@H](C(=O)N[C@H](CCC(=O)OCC)C(=O)OCC)C(C)C)cc1OC" and give its measured EC50.
result: 9.9

query: Find the recorded EC50 belonging to CCCCCCC(CC)C(=O)Oc1ccc(/C=C/C(=O)NCC(=O)N[C@H](C(=O)N[C@H](CCC(=O)OCC)C(=O)OCC)C(C)C)cc1OC (stereo partly drawn) and report it.
result: 9.7

query: Endpoint output: EC50 of "CCOC(=O)CC[C@@H](NC(=O)[C@@H](NC(=O)CNC(=O)/C=C/c1ccc(OC(=O)CO[C@H]2CC[C@@]3(C)C(=CC[C@H]4[C@@H]5CC[C@H]([C@H](C)CCCC(C)C)[C@@]5(C)CC[C@@H]43)C2)c(OC)c1)C(C)C)C(=O)OCC" . Value?
result: 12200

query: Please report the recorded EC50 for CCCCCC(CCC)C(=O)Oc1ccc(/C=C/C(=O)NCC(=O)N[C@H](C(=O)N[C@H](CCC(=O)OCC)C(=O)OCC)C(C)C)cc1OC (stereo partly drawn) .
result: 19.4

query: Recorded EC50 for "CC/C=C\C/C=C\C/C=C\C/C=C\C/C=C\CCCC(=O)Oc1ccc(/C=C/C(=O)NCC(=O)N[C@H](C(=O)N[C@H](CCC(=O)OCC)C(=O)OCC)C(C)C)cc1OC" , please?
result: 105

query: Item under review: "CCCC(=O)Oc1ccc(/C=C/C(=O)NCC(=O)N[C@H](C(=O)N[C@H](CCC(=O)OCC)C(=O)OCC)C(C)C)cc1OC" . Reported EC50?
result: 4.6

query: What value of EC50 has been reported for the following molecule? "CCCCCCCC(=O)Oc1ccc(/C=C/C(=O)NCC(=O)N[C@H](C(=O)N[C@H](CCC(=O)OCC)C(=O)OCC)C(C)C)cc1OC"
result: 25.5

====

Test system: CD4+ T cells cocultured with BMDCs
Experiment: BMDC antigen presentation to ovalbumin-specific CD4+ T cells (OT II)
Format: cell-based, C57BL/6 mouse
Conditions: BMDCs pretreated 10 μM + ovalbumin 50 μg/mL 18 h, coculture 72 h; OVA-treated cells 63.8%
Quantity kind: fraction of activated and proliferating CD4+ T-cells (CD25+, CFSE low) (%)
The reply should be a number in %, with the unit left off.

query: Quick one: fraction of activated and proliferating CD4+ T-cells (CD25+, CFSE low) for "CCCC(=O)Oc1ccc(/C=C/C(=O)NCC(=O)N[C@H](C(=O)N[C@H](CCC(=O)OCC)C(=O)OCC)C(C)C)cc1OC" ?
result: 77.9

query: Give the measured fraction of activated and proliferating CD4+ T-cells (CD25+, CFSE low) of "CCOC(=O)[C@@H](CCC(=O)NC12C[C@H]3C[C@@H](C1)C[C@@H](C2)C3)NC(=O)[C@@H](NC(=O)CNC(=O)/C=C/c1ccc(O)c(OC)c1)C(C)C" .
result: 67.0

query: Item under review: "CCOC(=O)CC[C@@H](NC(=O)[C@@H](NC(=O)CNC(=O)/C=C/c1ccc(OC(=O)CO[C@H]2CC[C@@]3(C)C(=CC[C@H]4[C@@H]5CC[C@H]([C@H](C)CCCC(C)C)[C@@]5(C)CC[C@@H]43)C2)c(OC)c1)C(C)C)C(=O)OCC" . Reported fraction of activated and proliferating CD4+ T-cells (CD25+, CFSE low)?
result: 62.7

query: Sample "CC/C=C\C/C=C\C/C=C\C/C=C\C/C=C\CCCC(=O)Oc1ccc(/C=C/C(=O)NCC(=O)N[C@H](C(=O)N[C@H](CCC(=O)OCC)C(=O)OCC)C(C)C)cc1OC" — what was its fraction of activated and proliferating CD4+ T-cells (CD25+, CFSE low)?
result: 79.7

====

Molecular target: hNOD2 (Homo sapiens, UniProt Q9HC29)
Construct: host or cells: HEK-Blue NOD2 cells (HEK293)
Assay: HEK-Blue NOD2 cell line reporter assay (NF-κB-inducible SEAP)
Assay type: cell-based
Conditions: HEK-Blue NOD2 cells, 18 h; read-out: EC50, NOD2 agonistic activity (text)
Quantity kind: pEC50
Field pEC50 (float): negative decimal logarithm of the concentration in molar.

query: Which pEC50 value belongs to "CCOC(=O)[C@@H](CCC(=O)NCCCNCCCCNCCCN)NC(=O)[C@@H](NC(=O)CNC(=O)/C=C/c1ccc(O)c(OC)c1)C(C)C" ?
result: 5.07

query: Bench note: what pEC50 did "CCOC(=O)CC[C@@H](NC(=O)[C@@H](NC(=O)CNC(=O)/C=C/c1ccc(OC(=O)CO[C@H]2CC[C@@]3(C)C(=CC[C@H]4[C@@H]5CC[C@H]([C@H](C)CCCC(C)C)[C@@]5(C)CC[C@@H]43)C2)c(OC)c1)C(C)C)C(=O)OCC" show?
result: 4.91

query: Would you kindly share the measured pEC50 for "CCCCCCCCCCCCCCCCCC(=O)Oc1ccc(/C=C/C(=O)NCC(=O)N[C@H](C(=O)N[C@H](CCC(=O)OCC)C(=O)OCC)C(C)C)cc1OC" ?
result: 5.14

====

Target: hNOD2 (Homo sapiens)
Construct: host or cells: HEK-Blue NOD2 cells (HEK293)
Assay: HEK-Blue NOD2 cell line reporter assay (NF-κB-inducible SEAP)
Format: cell-based
Conditions: HEK-Blue NOD2 cell line; SLN and NLC formulations by melt-emulsification
Quantity kind: pEC50
Convention used: pEC50 is expressed as -log10 of the molar concentration.

query: Which pEC50 is reported for this compound? "CCCCCCCCCCCC(=O)Oc1ccc(/C=C/C(=O)NCC(=O)N[C@H](C(=O)N[C@H](CCC(=O)OCC)C(=O)OCC)C(C)C)cc1OC"
result: 7.98
